Cited source for all entries: PubChem BioAssay

Measured z-score by item
# Method Notes: inhibitors of hydroxyurea-induced Chk1 phosphorylation, primary screen, imaging, HeLa, phospho-Chk1 antibody, percent positive cells (AID 1186)
# Conditions Used: hydroxyurea-induced phospho-Chk1 immunofluorescence imaging, higher = more signal
Calls of active or inactive are those of the source. The rule behind the calls is not given here.

// worked examples, z-score included
{"Compound": "COc1ccc([Si](C)(C)[C@H]2[C@H](CCO)O[C@@]3(C(=O)N(Cc4ccccc4)c4ccc(N5CCOC5=O)cc43)[C@@H]2C)cc1", "z-score": "-0.796 (inactive)"}
{"Compound": "CCCCCCCCCCC(O)C1C=CC2C(=O)N(c3ccccc3)C(=O)C2N1Nc1ccccc1F (configuration not stated)", "z-score": "-0.745 (inactive)"}
{"Compound": "C=CCNC(=O)[C@H]1[C@@H]2C(=O)O[C@@H](c3ccccc3)[C@@H](c3ccccc3)N2[C@@H](c2ccc(OCCO)cc2)[C@]12C(=O)N(C(=O)OCCOC)c1ccc(C#Cc3ccc(OC)cc3)cc12", "z-score": "-0.499 (inactive)"}
{"Compound": "COCCOC(=O)N1C(=O)[C@@]2(c3ccccc31)[C@H](c1ccccc1OCCO)N1[C@H](c3ccccc3)[C@H](c3ccccc3)OC(=O)[C@H]1[C@@H]2C(N)=O", "z-score": "0.0327 (inactive)"}
{"Compound": "CN1C(=O)[C@@H]2[C@@H](CC(COc3ccccc3)=C([C@H](O)CCc3ccccc3)[C@@H]2CO)C1=O", "z-score": "-1.25 (inactive)"}

Asked: Give the measured z-score of C=CC1c2cc(O)c(OC)cc2CCN1Cc1ccc([N+](=O)[O-])o1 (configuration not stated) .
Given back: -0.131 (inactive)

Asked: Also `COc1ccc([Si](C)(C)[C@@H]2[C@@H](CC(=O)N3Cc4ccccc4C[C@H]3CO)O[C@]3(C(=O)N(c4ccccc4)c4ccccc43)[C@H]2C)cc1` , if possible.
Given back: -0.0103 (inactive)

Asked: Also `O=C1C[C@@](C(=O)NCC(F)(F)F)(c2ccc([N+](=O)[O-])cc2)[C@@H](c2ccc(CO)cc2)N1CC12CC3CC(CC(C3)C1)C2` , if possible.
Given back: -0.123 (inactive)

Asked: Also `COCCOC(=O)N1C(=O)[C@@]2(c3cc(C#Cc4ccc(OC)cc4)ccc31)[C@H](c1ccc(OCCO)cc1)N1[C@H](c3ccccc3)[C@H](c3ccccc3)OC(=O)[C@H]1[C@@H]2C(=O)Nc1nc2ccccc2s1` , if possible.
Given back: -0.007 (inactive)

Asked: Also `COCCOC(=O)N1C(=O)[C@@]2(c3cc(C#CC4=CCCCC4)ccc31)[C@H](c1ccc(O)cc1)N1[C@H](c3ccccc3)[C@H](c3ccccc3)OC(=O)[C@H]1[C@@H]2C(=O)NC[C@H](O)c1ccccc1` , if possible.
Given back: -0.0889 (inactive)

Asked: Also `COCCOC(=O)N1C(=O)[C@@]2(c3cc(C#CCC(C(=O)OC)C(=O)OC)ccc31)[C@H](c1ccc(OCCO)cc1)N1[C@H](c3ccccc3)[C@H](c3ccccc3)OC(=O)[C@H]1[C@@H]2C(=O)Nc1nc2ccccc2s1` , if possible.
Given back: -0.365 (inactive)

Asked: Also CCOC(=O)C1=CCC(c2ccco2)N(S(=O)(=O)c2ccc(C)cc2)C1 (configuration not stated) , if possible.
Given back: -0.641 (inactive)

Asked: Also `CC(C)[Si]1(C(C)C)OCc2cc(-c3ccc(-c4ccc(Cl)c(Cl)c4)o3)nc(CCc3ccccc3)c21` , if possible.
Given back: -0.691 (inactive)

Asked: Also `Cc1nc2cc(Br)ccc2c(=O)n1Cc1cccc(O)c1` , if possible.
Given back: 0.18 (inactive)

Asked: Also `COc1ccc([Si](C)(C)[C@H]2[C@H](CCO)O[C@@]3(C(=O)N(Cc4ccc(N5C(=O)c6ccccc6Oc6ccccc65)cc4)c4ccccc43)[C@@H]2C)cc1` , if possible.
Given back: -0.557 (inactive)

Asked: Also CC(=O)n1cc(C(O)C2C=CC3C(=O)N(c4ccccc4)C(=O)C3N2Nc2ccc(C(C)C)cc2)c2ccccc21 (configuration not stated) , if possible.
Given back: 0.417 (inactive)

Asked: Also `COCC(=C=CC[C@@H](O)c1ccc(OCCO)cc1)CCO` , if possible.
Given back: -0.321 (inactive)
